B1: EHEE_rd2_1257 (parent)
chain: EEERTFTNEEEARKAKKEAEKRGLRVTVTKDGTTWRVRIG

Variants of: B1
procedure.details: folding stability dG (cDNA display proteolysis); higher = more stable
condition.info: PBS, room temperature
observable: folding stability dG (kcal/mol)
# output: bare number, implied unit kcal/mol

mutation.id	value.units	measured
D31R	kcal/mol	1.32
F6V	kcal/mol	0.21
E3N	kcal/mol	1.37
R38L	kcal/mol	2.27
T7K	kcal/mol	1.63
R38E	kcal/mol	1.48
R13Q	kcal/mol	2.32
A15Y	kcal/mol	3.31
R36H	kcal/mol	1.81
L24S	kcal/mol	0.594

[Q] Recorded folding stability dG for T5I , please?
[A] 2.56

[Q] Quick one: folding stability dG for R4D ?
[A] 0.771

[Q] // query folding stability dG value for entry E18M
[A] 1.72

[Q] Param item = D31K ; retrieve measured folding stability dG.
[A] 1.34

[Q] Param item = E18Q ; retrieve measured folding stability dG.
[A] 1.64

[Q] Given the entry G23L , report its measured folding stability dG.
[A] 0.537

[Q] # input variant: T27L ; wanted: its folding stability dG
[A] 1.58

[Q] Using the record for R38H , report its folding stability dG.
[A] 1.94

[Q] What does the data say about its folding stability dG? Entry: E11S
[A] 1.46

[Q] Any idea what folding stability dG was measured for T5R ?
[A] 1.52

[Q] Could you share which folding stability dG value was measured for W35F ?
[A] 1.32

[Q] I would be grateful if you could share the reported folding stability dG for R25L .
[A] 1.87

[Q] Find the recorded folding stability dG belonging to G23A and report it.
[A] 0.188

[Q] Can you look up the measured folding stability dG of W35S for me?
[A] -0.143

Data provenance is the MegaScale stability set (Tsuboyama et al. 2023).
